Data provenance is PubChem BioAssay AID1159580.

test: chemical genetic growth profiling, strain panel (AID 1159580);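 also: tested at 20 µM; growth read once vehicle control cultures reached saturation at 30 °C; 1 = growth at the plate median or of vehicle wells; lower values mean less growth of the strain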; conditions: S. cerevisiae deletion strains, growth OD, locus YJL095W, strain BCK1, active compounds read low
Screen size: about 5,500 compounds; about 2,000 (36%) were called active. Roughly 18% stayed inconclusive and do not appear here. Some of the results follow.
measurement name: normalized growth
I'd appreciate a reply containing only the number, no unit.

*Q* Please indicate normalized growth recorded for `CC1(C)O[C@@H]2[C@@H](CO[C@@]3(COS(N)(=O)=O)OC(C)(C)O[C@@H]23)O1`
*A* 0.974

*Q* Please indicate normalized growth recorded for CC(=O)O[C@H]1CC[C@@]2(C)C(=CCC3C2CC[C@]2(C)C(=O)CCC32)C1 (some centres undefined)
*A* 0.433

*Q* Please indicate normalized growth recorded for N#CC1=C(N)C(C#N)(C#N)C2(CCCCC2)C2CCCC=C12 (centres undefined)
*A* 0.951

*Q* Please indicate normalized growth recorded for `N/C(=N/OC(=O)c1ccc(Cl)cc1)c1ccc(F)cc1F`
*A* 0.243

*Q* Please indicate normalized growth recorded for `COc1ccccc1-c1cc(=O)c2c(OC)cccc2o1`
*A* 0.773

*Q* Please indicate normalized growth recorded for `O=C(O)c1cc(=O)c(O)c2c(O)c(O)c(O)cc2c1`
*A* 0.575

*Q* Please indicate normalized growth recorded for `CCc1cc2c(cc1-c1csc(C/C(N)=N\O)n1)C(C)(C)CCC2(C)C`
*A* 0.532

*Q* Please indicate normalized growth recorded for `CN1CC(=O)N2[C@H](c3ccc4c(c3)OCO4)c3[nH]c4ccccc4c3C[C@@H]2C1=O`
*A* 0.964

*Q* Please indicate normalized growth recorded for CCCCCCCC1CCC/C1=N/OC(=O)c1cccs1 (centres undefined)
*A* 0.91

*Q* Please indicate normalized growth recorded for `CC(C)(O)C#Cc1ccc(/C=N\Nc2c(Cl)cc(Cl)cc2Cl)cc1`
*A* 0.341

*Q* Please indicate normalized growth recorded for N[C@@H](CCC(=O)N[C@@H](CCSC(CC(=O)O)C(=O)O)C(=O)NCC(=O)O)C(=O)O (some centres undefined)
*A* 1.01

*Q* Please indicate normalized growth recorded for CC[C@@H](C(=O)O)[C@@H]1O[C@@H]([C@@H](C)[C@H](O)[C@H](C)C(=O)[C@H](CC)[C@H]2O[C@]3(C=C[C@@H](O)[C@]4(CC[C@@](C)(C5CC[C@](O)(CC)[C@H](C)O5)O4)O3)[C@H](C)C[C@@H]2C)[C@@H](C)C[C@H]1C (some centres undefined)
*A* 0.232

*Q* Please indicate normalized growth recorded for `CCCCCc1ccc(S(=O)(=O)Nc2ccc3c(c2)C(=O)OC3)cc1`
*A* 0.967

*Q* Please indicate normalized growth recorded for `CC(=O)C(Sc1nc2ccccc2s1)C(C)=O`
*A* 0.521

*Q* Please indicate normalized growth recorded for `CCOP(=S)(OCC)SCCSCC`
*A* 0.97

*Q* Please indicate normalized growth recorded for `CCOP(=S)(OCC)SCSCC`
*A* 0.993

*Q* Please indicate normalized growth recorded for CO[C@@H]1C[C@@H](C[C@H]2CC[C@H](C)[C@H]([C@@H](C)C(=O)O)O2)O[C@]2(O[C@](C)([C@H]3CC[C@@](C)(C4O[C@@H](C5O[C@@](O)(CO)[C@H](C)C[C@@H]5C)C[C@@H]4C)O3)C[C@H]2C)[C@@H]1C (some centres undefined)
*A* 0.997

*Q* Please indicate normalized growth recorded for COc1ccccc1C(C[N+](=O)[O-])c1c(N)n(C)c(=O)n(C)c1=O (centres undefined)
*A* 0.33

*Q* Please indicate normalized growth recorded for `CC[C@]12CCCN3CCc4c(n(c5ccccc45)C(=O)C1)[C@@H]32`
*A* 0.956

---

test: chemical genetic growth profiling, strain panel (AID 1159580);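 also: tested at 20 µM; growth read once vehicle control cultures reached saturation at 30 °C; 1 = growth at the plate median or of vehicle wells; lower values mean less growth of the strain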; conditions: S. cerevisiae deletion strains, growth OD, locus YGR229C, strain SMI1, active compounds read low
The whole screen tested about 5,500 compounds, of which about 2,000 (36%) were called active. About 18% were inconclusive and are not listed. Some of the results follow.
measurement name: normalized growth

*Q* Please indicate normalized growth recorded for `O=C(O)CC[C@@H](NC(=O)c1ccccc1C(=O)O)C(=O)O`
*A* 1.03 (inactive)

*Q* Please indicate normalized growth recorded for CC1(C)CC2C1CCC1(C)OC2(C)CCC1O (stereo not drawn)
*A* 0.978 (inactive)

*Q* Please indicate normalized growth recorded for OC1CCCCC1N1CCC(c2ccccc2)CC1 (stereo not drawn)
*A* 1.01 (inactive)

*Q* Please indicate normalized growth recorded for O=C1NC(c2c(F)cccc2Cl)Nc2ccccc21 (stereo not drawn)
*A* 0.988 (inactive)

*Q* Please indicate normalized growth recorded for `CCOP(=S)(OCC)SCSCC`
*A* 0.998 (inactive)

*Q* Please indicate normalized growth recorded for CC(N)(Cc1ccc(O)c(O)c1)C(=O)O (stereo not drawn)
*A* 0.862 (inactive)

*Q* Please indicate normalized growth recorded for `CN[C@H](CC(C)C)C(=O)N[C@H]1C(=O)N[C@@H](CC(N)=O)C(=O)N[C@H]2C(=O)N[C@H]3C(=O)N[C@H](C(=O)N[C@H](C(=O)O)c4cc(O)cc(O)c4-c4cc3ccc4O)[C@H](O)c3ccc(c(Cl)c3)Oc3cc2cc(c3O[C@@H]2O[C@H](CO)[C@@H](O)[C@H](O)[C@H]2O[C@H]2C[C@](C)(N)[C@H](O)[C@H](C)O2)Oc2ccc(cc2Cl)[C@H]1O`
*A* 1.03 (inactive)

*Q* Please indicate normalized growth recorded for CN1CCc2cccc3c2C1Cc1ccc(O)c(O)c1-3 (stereo not drawn)
*A* 1.02 (inactive)

*Q* Please indicate normalized growth recorded for `[Li+]`
*A* 1.02 (inactive)

*Q* Please indicate normalized growth recorded for CCCN1CCOC2c3cc(O)ccc3OCC21 (stereo not drawn)
*A* 1.03 (inactive)

*Q* Please indicate normalized growth recorded for `Cc1cccc2nc(-c3ccccc3)oc(=O)c12`
*A* 0.984 (inactive)

*Q* Please indicate normalized growth recorded for `CCCN1CCc2cccc3c2[C@H]1Cc1ccc(O)c(O)c1-3`
*A* 0.186 (active)

*Q* Please indicate normalized growth recorded for C[C@@H]1CC2C3CCC4=CC(=O)C=C[C@]4(C)[C@@]3(F)[C@@H](O)C[C@]2(C)[C@@]1(O)C(=O)COP(=O)(O)O (stereo partly drawn)
*A* 1.01 (inactive)

*Q* Please indicate normalized growth recorded for `CC1(C)CCC(C(C)(C)O)CC1`
*A* 0.991 (inactive)

*Q* Please indicate normalized growth recorded for C=CCN1CC[C@]23c4c5ccc(O)c4OC2C(=O)CC[C@@]3(O)[C@H]1C5 (stereo partly drawn)
*A* 1 (inactive)

*Q* Please indicate normalized growth recorded for `CCOC(=O)Nc1ccc(NCc2ccc(F)cc2)nc1N`
*A* 1.07 (inactive)

*Q* Please indicate normalized growth recorded for CC(Cc1ccc(O)c(O)c1)(NN)C(=O)O (stereo not drawn)
*A* 0.992 (inactive)

*Q* Please indicate normalized growth recorded for `O=C(O)c1cc(=O)c(O)c2c(O)c(O)ccc2c1`
*A* 0.977 (inactive)

*Q* Please indicate normalized growth recorded for `CCOC(=O)c1c(-c2ccc(F)cc2)csc1N`
*A* 0.928 (active)

*Q* Please indicate normalized growth recorded for CC(N)(Cc1ccc(O)cc1)C(=O)O (stereo not drawn)
*A* 1.03 (inactive)

*Q* Please indicate normalized growth recorded for `CCOP(=S)(OCC)SCSP(=S)(OCC)OCC`
*A* 0.908 (inactive)

*Q* Please indicate normalized growth recorded for `NCCCCN=C(N)N`
*A* 1.01 (inactive)

*Q* Please indicate normalized growth recorded for `O=c1cc(O)cc(/C=C/c2ccc(O)c(O)c2)o1`
*A* 0.966 (inactive)

---

test: chemical genetic growth profiling, strain panel (AID 1159580);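 also: tested at 20 µM; growth read once vehicle control cultures reached saturation at 30 °C; 1 = growth at the plate median or of vehicle wells; lower values mean less growth of the strain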; conditions: S. cerevisiae deletion strains, growth OD, locus YDR137W, strain rgp1
The whole screen tested about 5,500 compounds, of which about 2,000 (36%) were called active. Not shown: some 18% with an inconclusive outcome. Rule as the data show it: active = normalized growth mostly below about 0.91 (no sharp cut-off); inconclusive = no clear call, values can overlap the other calls; inactive = mostly above about 0.92. This is one part of the list.
Return exactly one item of YES (active), NO (inactive)

*Q* Recorded test call requested for `CCCN(CCC)CCc1cccc2c1CC(=O)N2`
*A* NO

*Q* Recorded test call requested for CCCN(CCC)C(=O)C(CCC(=O)O)NC(=O)c1ccccc1 (stereo not drawn)
*A* NO

*Q* Recorded test call requested for `NCc1ccc(S(N)(=O)=O)cc1`
*A* NO

*Q* Recorded test call requested for C=CCN1CC[C@]23c4c5ccc(O)c4OC2C(=O)CC[C@@]3(O)[C@H]1C5 (stereo partly drawn)
*A* NO

*Q* Recorded test call requested for `CS(=O)(=O)OCCCCOS(C)(=O)=O`
*A* NO

*Q* Recorded test call requested for `COc1ccc(/C=C/c2cc(O)cc(O)c2)cc1`
*A* NO

*Q* Recorded test call requested for `COc1ccc(-c2cc(C(F)F)nn2-c2ccc(S(N)(=O)=O)cc2)cc1F`
*A* NO

*Q* Recorded test call requested for `S=c1[nH]c2ccccc2s1`
*A* YES

*Q* Recorded test call requested for COc1cc(C)c2c(c1C=O)Oc1c(c(C)c(O)c3c1C(O)OC3=O)OC2=O (stereo not drawn)
*A* NO

*Q* Recorded test call requested for `COc1ccc2c(c1O)-c1c(OC)c(OC)cc3c1[C@H](C2)N(C)CC3`
*A* NO

*Q* Recorded test call requested for `CCOC(N)=O`
*A* NO

*Q* Recorded test call requested for CC1(C)CC2C1CCC1(C)OC1CCC2(C)O (stereo not drawn)
*A* NO

*Q* Recorded test call requested for CC12CCCC(O)(C1)C1CC(C)(C)C1CC2 (stereo not drawn)
*A* YES
